- tested.on: human IL-13Rα2 on the surface of human tumour cell lines (human) (UniProt Q14627)
- Sequence (Q14627 27-380): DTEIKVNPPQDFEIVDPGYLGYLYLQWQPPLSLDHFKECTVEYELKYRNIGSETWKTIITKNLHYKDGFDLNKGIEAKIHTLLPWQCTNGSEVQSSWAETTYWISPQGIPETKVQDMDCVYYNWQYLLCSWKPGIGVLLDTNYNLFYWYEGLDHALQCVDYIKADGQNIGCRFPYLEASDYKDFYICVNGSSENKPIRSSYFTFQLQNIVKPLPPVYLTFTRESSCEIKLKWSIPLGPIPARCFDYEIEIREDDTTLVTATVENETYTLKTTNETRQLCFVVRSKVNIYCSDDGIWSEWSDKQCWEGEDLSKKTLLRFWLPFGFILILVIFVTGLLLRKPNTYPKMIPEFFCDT
- test.description: cell-based ELISA on A375 cells (given as ED50)
readout.kind: EC50 (nM)
Provide the reading as a plain figure in nM.

Sample chimeric antibody ch07 (antibody, human IgG1, V domains shown) VH: QVQLKESGPGLVAPSQSLSINCTVSGFSLTKYGVHWIRQSPGKGLEWLGVKWAGGSTDYNSALMSRLTISKDNNKSQVFLKMNSLQSDDSAMYYCARDHRDAMDYWGQGTSVTVSS VL: QVVLTQSPAIMSASPGERVTMTCTASLSVSSTYLHWYHQKPGSSPKLWIYSTSNLASGVPARFSGSGSGTSYSLTISSMEAEDAATYYCHQYHRSPLTFGSGTKLELK — what was its EC50?
0.85

Sample hu07 heavy chain v1.5 / light chain v1.1 (antibody, IgG1, V domains shown) VH: EVQLVESGGGLVQPGGSLRLSCAASGFSLTKYGVHWVRQAPGKGLEWVGVKWAGGSTDYNSALMSRFTISKDNAKNSLYLQMNSLRAEDTAVYYCARDHRDAMDYWGQGTLVTVSS VL: DIQMTQSPSSLSASVGDRVTITCTASLSVSSTYLHWYQQKPGSSPKLLIYSTSNLASGVPSRFSGSGSGTSFTLTISSLQPEDFATYYCHQYHRSPLTFGGGTKVEIK — what was its EC50?
1.29

Sample hu07 heavy chain v1.5 / light chain v1.0 (antibody, IgG1, V domains shown) VH: EVQLVESGGGLVQPGGSLRLSCAASGFSLTKYGVHWVRQAPGKGLEWVGVKWAGGSTDYNSALMSRFTISKDNAKNSLYLQMNSLRAEDTAVYYCARDHRDAMDYWGQGTLVTVSS VL: DIQMTQSPSSLSASVGDRVTITCTASLSVSSTYLHWYQQKPGKAPKLLIYSTSNLASGVPSRFSGSGSGTDFTLTISSLQPEDFATYYCHQYHRSPLTFGGGTKVEIK — what was its EC50?
1.17

Sample hu07 heavy chain v1.5 paired with chimeric light chain (antibody, V domains shown) VH: EVQLVESGGGLVQPGGSLRLSCAASGFSLTKYGVHWVRQAPGKGLEWVGVKWAGGSTDYNSALMSRFTISKDNAKNSLYLQMNSLRAEDTAVYYCARDHRDAMDYWGQGTLVTVSS VL: QVVLTQSPAIMSASPGERVTMTCTASLSVSSTYLHWYHQKPGSSPKLWIYSTSNLASGVPARFSGSGSGTSYSLTISSMEAEDAATYYCHQYHRSPLTFGSGTKLELK — what was its EC50?
0.87

Origin of measurements: patent US20150266962A1
